Provenance of the data: patent US20230365576A1

A collection of compounds and their measured Dmax
Target: SMARCA4 (Homo sapiens, UniProt P51532)
Construct: SMARCA4-HiBiT knock-in Hela monoclonal cell (CS3023226) were purchased from Promega; host or cells: HeLa (CRISPR HiBiT knock-in monoclonal line, heterozygous)
Sequence (P51532 whole entry): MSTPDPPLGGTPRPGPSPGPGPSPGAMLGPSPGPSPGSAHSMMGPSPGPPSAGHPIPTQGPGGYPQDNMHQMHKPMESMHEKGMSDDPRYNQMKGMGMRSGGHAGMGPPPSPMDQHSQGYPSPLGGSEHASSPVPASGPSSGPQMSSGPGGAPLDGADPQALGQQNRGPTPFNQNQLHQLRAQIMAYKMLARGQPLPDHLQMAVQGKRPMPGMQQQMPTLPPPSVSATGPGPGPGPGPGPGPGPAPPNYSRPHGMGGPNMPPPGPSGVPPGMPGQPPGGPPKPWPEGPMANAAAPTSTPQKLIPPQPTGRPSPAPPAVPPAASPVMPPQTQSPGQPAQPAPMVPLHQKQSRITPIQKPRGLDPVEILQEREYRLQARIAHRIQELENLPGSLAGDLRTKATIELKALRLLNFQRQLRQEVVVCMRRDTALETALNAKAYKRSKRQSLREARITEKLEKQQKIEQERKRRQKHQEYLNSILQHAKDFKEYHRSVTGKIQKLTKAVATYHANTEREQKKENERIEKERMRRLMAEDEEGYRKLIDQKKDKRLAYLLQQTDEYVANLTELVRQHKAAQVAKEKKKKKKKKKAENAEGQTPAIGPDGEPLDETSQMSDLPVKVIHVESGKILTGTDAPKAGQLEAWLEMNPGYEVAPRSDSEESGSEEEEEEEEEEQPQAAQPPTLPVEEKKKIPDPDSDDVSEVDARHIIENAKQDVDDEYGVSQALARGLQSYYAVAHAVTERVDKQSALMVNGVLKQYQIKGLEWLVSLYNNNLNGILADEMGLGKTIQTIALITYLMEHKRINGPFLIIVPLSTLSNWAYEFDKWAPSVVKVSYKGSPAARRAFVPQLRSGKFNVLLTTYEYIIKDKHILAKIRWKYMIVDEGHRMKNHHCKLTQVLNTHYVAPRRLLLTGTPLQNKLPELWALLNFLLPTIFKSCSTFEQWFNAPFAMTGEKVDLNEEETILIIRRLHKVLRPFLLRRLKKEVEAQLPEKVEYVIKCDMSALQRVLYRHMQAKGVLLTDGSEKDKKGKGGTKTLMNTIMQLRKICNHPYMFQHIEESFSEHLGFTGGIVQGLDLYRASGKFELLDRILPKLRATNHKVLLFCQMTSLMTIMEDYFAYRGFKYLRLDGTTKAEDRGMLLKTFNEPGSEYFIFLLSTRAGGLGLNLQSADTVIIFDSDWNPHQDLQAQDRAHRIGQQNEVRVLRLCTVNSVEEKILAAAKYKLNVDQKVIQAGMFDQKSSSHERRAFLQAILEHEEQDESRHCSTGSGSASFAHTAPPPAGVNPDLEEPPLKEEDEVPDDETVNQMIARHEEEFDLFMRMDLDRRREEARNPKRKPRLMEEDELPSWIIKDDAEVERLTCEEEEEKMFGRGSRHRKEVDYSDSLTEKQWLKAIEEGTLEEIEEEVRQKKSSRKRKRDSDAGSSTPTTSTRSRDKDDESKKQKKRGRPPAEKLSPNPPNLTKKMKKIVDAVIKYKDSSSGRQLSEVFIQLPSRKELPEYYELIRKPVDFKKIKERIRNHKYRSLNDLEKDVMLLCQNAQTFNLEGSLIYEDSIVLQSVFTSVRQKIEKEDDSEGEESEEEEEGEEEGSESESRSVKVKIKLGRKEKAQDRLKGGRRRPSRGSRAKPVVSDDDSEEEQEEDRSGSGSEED
Experiment: SMARCA4 HiBiT degradation assay in HeLa cells
Type: cell-based
Settings: HeLa, 18 hours

# count of solved cases: 2
Lab note: need Dmax for CC1(C)CC(CN2CCN(c3ccc4c(c3)C(=O)N(C3CCC(=O)NC3=O)C4)CC2)CCN1C(=O)N1CCN2c3cc(-c4cccc(F)c4O)nnc3NC[C@H]2C1 (stereo partly shown) on SMARCA4 (Homo sapiens, UniProt P51532), anyone have it?
50 to 75%

Lab note: need Dmax for O=C1CCC(N2Cc3ccc(N4CCN(C[C@H]5CC[C@H](CN6CCN7c8cc(-c9cccc(F)c9O)nnc8NC[C@H]7C6)CC5)CC4)cc3C2=O)C(=O)N1 (stereo partly shown) on SMARCA4 (Homo sapiens, UniProt P51532), anyone have it?
50 to 75%

Further cases:
Lab note: need Dmax for O=C1CCC(N2Cc3cc(N4CC[C@@H](CN5CCC(CN6CCN7c8cc(-c9cc(F)cc(F)c9O)nnc8NC[C@H]7C6)CC5)C4)ccc3C2=O)C(=O)N1 (stereo partly shown) on SMARCA4 (Homo sapiens, UniProt P51532), anyone have it?
50 to 75%

Lab note: need Dmax for C[C@@H]1CN(CC2CCN(c3ccc4c(c3)C(=O)N([C@H]3CCC(=O)NC3=O)C4)CC2)C[C@H](C)N1C(=O)N1CCN2c3cc(-c4cccc(F)c4O)nnc3NCC2(C(F)(F)F)C1 (single isomer, unassigned) on SMARCA4 (Homo sapiens, UniProt P51532), anyone have it?
> 75%

Lab note: need Dmax for CCC1CN(CC2CCN(c3ccc4c(c3)C(=O)N(C3CCC(=O)NC3=O)C4)CC2)CCN1C(=O)N1CCN2c3cc(-c4cc(F)cc(F)c4O)nnc3NC[C@H]2C1 (mixture of isomers) on SMARCA4 (Homo sapiens, UniProt P51532), anyone have it?
50 to 75%

Lab note: need Dmax for C[C@@H]1CN(CC2CCN(c3ccc4c(c3)C(=O)N(C3CCC(=O)NC3=O)C4)CC2)C[C@H](C)N1C(=O)N1CCN2c3cc(-c4cccc(F)c4O)nnc3NC[C@@]2(C(F)F)C1 (stereo partly shown) on SMARCA4 (Homo sapiens, UniProt P51532), anyone have it?
< 50%

Lab note: need Dmax for CCC12CNc3nnc(-c4cccc(F)c4O)cc3N1CCN(C(=O)N1CCN(CC3CCN(c4ccc5c(c4)C(=O)N(C4CCC(=O)NC4=O)C5)CC3)CC1(C)C)C2 (mixture of isomers) [Example 8] on SMARCA4 (Homo sapiens, UniProt P51532), anyone have it?
50 to 75%

Lab note: need Dmax for C[C@@H]1CN(CC2CCN(c3ccc4c(c3)C(=O)N(C3CCC(=O)NC3=O)C4)CC2)C[C@H](C)N1C(=O)N1CCN2c3cc(-c4cccc(F)c4O)nnc3NC[C@]2(C(F)F)C1 (stereo partly shown) on SMARCA4 (Homo sapiens, UniProt P51532), anyone have it?
50 to 75%

Lab note: need Dmax for COCC12CNc3nnc(-c4cccc(F)c4O)cc3N1CCN(C(=O)N1CCN(CC3CCN(c4ccc5c(c4)C(=O)N([C@H]4CCC(=O)NC4=O)C5)CC3)CC1(C)C)C2 (single isomer, unassigned) on SMARCA4 (Homo sapiens, UniProt P51532), anyone have it?
< 50%

Lab note: need Dmax for CCC12CNc3nnc(-c4cccc(F)c4O)cc3N1CCN(C(=O)N1CCN(CC3CCN(c4ccc5c(c4)C(=O)N(C4CCC(=O)NC4=O)C5)CC3)CC1(C)C)C2 (single isomer, unassigned) [Example 79] on SMARCA4 (Homo sapiens, UniProt P51532), anyone have it?
< 50%

###

Target: SMARCA4 (Homo sapiens, UniProt P51532)
Construct: SMARCA4-HiBiT knock-in Hela monoclonal cell (CS3023226) were purchased from Promega; host or cells: HeLa (CRISPR HiBiT knock-in monoclonal line, heterozygous)
Test: SMARCA4 HiBiT degradation assay in HeLa cells
Type: cell-based
Conditions: 18 hours
Readout type: SMARCA4 DMax %

Lab note: need SMARCA4 DMax % for C[C@@H]1CN(CC2CCN(c3ccc4c(c3)C(=O)N(C3CCC(=O)NC3=O)C4)CC2)C[C@H](C)N1C(=O)N1CCN2c3cc(-c4cccc(F)c4O)nnc3NCC2(C)C1 (single isomer, unassigned) [Example 12] on SMARCA4 (Homo sapiens, UniProt P51532), anyone have it?
A (A=Dmax>75%)

Lab note: need SMARCA4 DMax % for CC12CNc3nnc(-c4cc(F)cc(F)c4O)cc3N1CCN(C(=O)C1(F)CCN(CC3CCN(c4ccc5c(c4)C(=O)N([C@H]4CCC(=O)NC4=O)C5)CC3)CC1)C2 (single isomer, unassigned) [Example 113] on SMARCA4 (Homo sapiens, UniProt P51532), anyone have it?
C (C=Dmax<50%)

Lab note: need SMARCA4 DMax % for C[C@@H]1C[C@H](CN2CCN(c3ccc4c(c3)C(=O)N([C@H]3CCC(=O)NC3=O)C4)CC2)C[C@H](C)N1C(=O)N1CCN2c3cc(-c4cccc(F)c4O)nnc3NCC2(C(F)(F)F)C1 (single isomer, unassigned) [Example 98] on SMARCA4 (Homo sapiens, UniProt P51532), anyone have it?
A (A=Dmax>75%)

Lab note: need SMARCA4 DMax % for CC1(C)CN(CC2CCN(c3ccc4c(c3)C(=O)N([C@H]3CCC(=O)NC3=O)C4)CC2)CCN1C(=O)N1CCN2c3cc(-c4cccc(F)c4O)nnc3NCC2(C(F)(F)F)C1 (single isomer, unassigned) on SMARCA4 (Homo sapiens, UniProt P51532), anyone have it?
C (C=Dmax<50%)

Further cases:
Lab note: need SMARCA4 DMax % for CCC12CNc3nnc(-c4cccc(F)c4O)cc3N1CCN(C(=O)N1[C@H](C)CN(CC3CCN(c4ccc5c(c4)C(=O)N(C4CCC(=O)NC4=O)C5)CC3)C[C@@H]1C)C2 (single isomer, unassigned) [Example 88] on SMARCA4 (Homo sapiens, UniProt P51532), anyone have it?
A (A=Dmax>75%)

Lab note: need SMARCA4 DMax % for CC1(C)CN(CC2CCN(c3ccc4c(c3)C(=O)N(C3CCC(=O)NC3=O)C4)CC2)CCN1C(=O)N1CCN2c3cc(-c4cccc(F)c4O)nnc3NCC2(C)C1 (single isomer, unassigned) [Example 10] on SMARCA4 (Homo sapiens, UniProt P51532), anyone have it?
C (C=Dmax<50%)
